target system: TEC (human) (UniProt P42680)
Sequence (P42680 whole entry, looked up): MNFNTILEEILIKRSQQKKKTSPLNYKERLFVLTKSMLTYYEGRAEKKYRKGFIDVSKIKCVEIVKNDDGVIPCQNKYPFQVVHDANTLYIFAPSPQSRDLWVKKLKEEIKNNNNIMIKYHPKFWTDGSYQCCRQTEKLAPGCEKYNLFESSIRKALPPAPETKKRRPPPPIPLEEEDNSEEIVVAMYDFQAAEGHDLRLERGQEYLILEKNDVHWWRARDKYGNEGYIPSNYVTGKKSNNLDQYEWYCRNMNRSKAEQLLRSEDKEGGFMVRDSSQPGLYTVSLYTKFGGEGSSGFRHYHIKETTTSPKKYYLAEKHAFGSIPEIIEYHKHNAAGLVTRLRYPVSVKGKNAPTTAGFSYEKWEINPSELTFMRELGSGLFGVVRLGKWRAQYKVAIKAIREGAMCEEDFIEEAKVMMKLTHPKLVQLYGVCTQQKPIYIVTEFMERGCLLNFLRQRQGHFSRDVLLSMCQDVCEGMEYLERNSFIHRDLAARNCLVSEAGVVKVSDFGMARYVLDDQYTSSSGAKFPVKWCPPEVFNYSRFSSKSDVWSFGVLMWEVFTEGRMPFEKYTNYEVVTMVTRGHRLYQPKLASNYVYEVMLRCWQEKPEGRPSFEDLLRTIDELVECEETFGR
assay procedure: radiometric filter-binding kinase assay, Kinase HotSpot
protocol conditions: compound 0.5 µM; ATP 10 µM
# residual activity per record follows
measured attribute: residual activity (%)

1) COc1ccc(-c2cnc3c(-c4ccsc4)cnn3c2)cc1 | 124
2) O=c1cc(-c2cccc3c2Sc2ccccc2S3)oc(N2CCOCC2)c1 | 198
3) CCN1/C(=C/C(C)=O)Sc2ccc(OC)cc21 | 116
4) Cc1ccc(NC(=O)c2ccc(CN3CCN(C)CC3)cc2)cc1Nc1nc(-c2cccnc2)cs1 | 83.2
5) Nc1n[nH]c2nnc(-c3c(-c4ccccc4)nn4ccccc34)cc12 | 96.1
6) CC(C)(C)c1nc2c3ccc(F)cc3c3c(=O)[nH]ccc3c2[nH]1 | 106
7) CSc1nc(-c2ccc(F)cc2)c(-c2ccnc(NC(C)c3ccccc3)c2)[nH]1 (stereo unspecified) | 120
8) Nc1nc(Nc2ccc(S(N)(=O)=O)cc2)nn1C(=O)c1c(F)cccc1F | 122
9) CC(C)n1cnc2c(Nc3cccc(Cl)c3)nc(NCCO)nc21 | 113
10) NC(=O)c1ccc(N(C(N)=O)c2c(F)cccc2F)nc1-c1ccc(F)cc1F | 114
11) Oc1ccc(-c2nc(-c3ccc(F)cc3)c(-c3ccncc3)[nH]2)cc1 | 106
12) Cc1cc2ncc(-c3ccccc3)nc2cc1C | 98.1
13) O=C(Nc1ccc(Cl)cc1)c1ccccc1NCc1ccncc1 | 134
14) O=C(NC(NC(=S)Nc1ccc(F)c([N+](=O)[O-])c1)C(Cl)(Cl)Cl)C(c1ccccc1)c1ccccc1 (stereo unspecified) | 201
15) C#Cc1cccc(Nc2ncnc3cc(OCCOC)c(OCCOC)cc23)c1 | 96.2
16) CS(=O)c1ccc(-c2nc(-c3ccc(F)cc3)c(-c3ccncc3)[nH]2)cc1 (stereo unspecified) | 113
17) O=C1Nc2ccccc2/C1=C\c1c(Cl)[nH]c2ccccc12 | 124
18) COc1cc2ncnc(Nc3ccc(F)c(Cl)c3)c2cc1OCCCN1CCOCC1 | 104
19) Nc1nc(Nc2ccc(S(N)(=O)=O)cc2)nn1C(=S)Nc1c(F)cccc1F | 106
20) COc1cc2nccc(Oc3ccc(NC(=S)NC(=O)c4ccccc4C)cc3)c2cc1OC | 90.8
21) O=C1Cc2c([nH]c3ccc([N+](=O)[O-])cc23)-c2ccccc2N1 | 137
22) O=C1Nc2cc(Br)ccc2/C1=C1/Nc2ccccc2/C1=N\O | 104
23) O=c1cc(N2CCNCC2)oc2c(-c3ccccc3)cccc12 | 99.8
24) CCCNC(=O)Nc1ccc(Oc2ncnc3cc(OC)c(OC)cc23)cc1Cl | 119
25) Clc1ccc(Nc2nnc(Cc3ccncc3)c3ccccc23)cc1 | 137
26) CC(C)[C@H](CO)Nc1nc(Nc2cccc(Cl)c2)c2ncn(C(C)C)c2n1 | 127

* * *

# residual activity per record follows
target system: UniProtKB P15735
Sequence (P15735 whole entry, looked up): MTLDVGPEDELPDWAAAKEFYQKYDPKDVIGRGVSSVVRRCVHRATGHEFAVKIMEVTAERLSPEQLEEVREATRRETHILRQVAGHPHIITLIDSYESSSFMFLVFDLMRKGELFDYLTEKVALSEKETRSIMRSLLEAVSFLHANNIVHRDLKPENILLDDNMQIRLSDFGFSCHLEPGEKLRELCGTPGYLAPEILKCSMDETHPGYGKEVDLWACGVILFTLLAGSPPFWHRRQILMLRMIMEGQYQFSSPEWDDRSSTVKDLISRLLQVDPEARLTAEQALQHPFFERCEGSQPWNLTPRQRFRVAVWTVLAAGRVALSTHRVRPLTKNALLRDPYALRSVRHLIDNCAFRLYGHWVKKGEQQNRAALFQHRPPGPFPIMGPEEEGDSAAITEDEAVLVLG
assay procedure: radiometric filter-binding kinase assay, Kinase HotSpot
protocol conditions: compound 0.5 µM; ATP 10 µM
measured attribute: residual activity (%)

1. C#Cc1cccc(Nc2ncnc3cc(OCCOC)c(OCCOC)cc23)c1 | 97.9
2. O=C(NC(NC(=S)Nc1ccc(F)c([N+](=O)[O-])c1)C(Cl)(Cl)Cl)C(c1ccccc1)c1ccccc1 (centres undefined) | 109
3. CCN1/C(=C/C(C)=O)Sc2ccc(OC)cc21 | 94.6
4. Clc1ccc(Nc2nnc(Cc3ccncc3)c3ccccc23)cc1 | 91.8
